So I've got a bunch of variants here, and I need their self-cleavage values.
B1: CPEB3 Ribozyme (parent)
chain: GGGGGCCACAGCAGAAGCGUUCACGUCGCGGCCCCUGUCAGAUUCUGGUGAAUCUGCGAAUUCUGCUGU

- Variants of: B1
- ASSAY_REMARKS: self-cleavage, relative activity (ratio to wild type); higher = more cleavage; co-transcriptional
Give the figure by itself; no unit, no explanation.

q: Report self-cleavage for C12U C39U please.
a: 0.854

q: Report self-cleavage for G4C C7U please.
a: 0.129

q: Report self-cleavage for A15U A40G please.
a: 0.697

q: Report self-cleavage for G2U U55A please.
a: 0.0595

q: Report self-cleavage for G30A C45G please.
a: 0.73

q: Report self-cleavage for G47U U55G please.
a: 0.937

q: Report self-cleavage for U46A G47U please.
a: 0.991

q: Report self-cleavage for C29G U38C please.
a: 0.302

q: Report self-cleavage for C6G C32G please.
a: 0.0963

q: Report self-cleavage for C33A U49A please.
a: 0.965

q: Report self-cleavage for G5C A52U please.
a: 0.123
